- Test Target: T1, PSMA Fab (006 PSMA Fab) (biotinylated (site not stated))
- T1 construct: Captured as biotinylated PSMA Fab on neutravidin coated plates in the phage ELISA; also called Anti-PSMA Fab; anti-PSMA Fab
- Protocol Description: phage ELISA: clonal phage on biotinylated PSMA Fab captured on neutravidin plate, wells pre-incubated with PSMA antigen as competitor, anti-M13 HRP detection
Value Kind: Phage binding ELISA signal, Anti-PSMA Fab in presence of PSMA
I only need the number, thanks.

Binder | Meas Value
EPRACVPFWMCLGF [Phage-3720] | 0.0796
YGVQCVPSWMCQGF [Phage-3715] | 0.0735
PYAVCVPKWMCSGF [Phage-3723] | 0.0805

Param item = EEKLCKPAWMCEWF [Phage-3724] ; retrieve measured Phage binding ELISA signal, Anti-PSMA Fab in presence of PSMA.
0.096

Which Phage binding ELISA signal, Anti-PSMA Fab in presence of PSMA value is on record for IDRHCVPRWMCDGL [Phage-3727] ?
0.0751

Returns the measured Phage binding ELISA signal, Anti-PSMA Fab in presence of PSMA for the input binder. Input: ESRLCVPTWMCTWL [Phage-3728]
0.0946
